experimental protocol: log P by HPLC on a reversed-phase column (C 18), EEC Directive 79/831 Annex V.A8
Type: physicochemical
test parameters: acidic range, pH 2.7, 0.1% aqueous formic acid/acetonitrile; 55° C.
# if value of LOGP_HCOOH reaches 3, tag satisfied; if it stays below, tag not satisfied

Below are worked cases with known answers.
1. CSc1cc(C(F)(F)F)ccc1-c1nc2cc(C(F)(F)F)ncc2n1C | satisfied
2. CCSc1cc(Cl)ccc1-c1nc2cc(C(F)(F)F)ncc2n1C | satisfied
3. CCSc1ccccc1-c1nc2cc(C(F)(F)F)ncc2o1 | satisfied
4. CCS(=O)(=O)c1cc(Cl)ccc1-c1nc2cc(C(F)(F)F)ncc2n1C | not satisfied
5. Cn1c(-c2ncc(C(F)(F)F)cc2S(=O)(=O)CCF)nc2cc(C(F)(F)F)ncc21 [Example I-57] | not satisfied
6. CSc1cc(F)ccc1-c1nc2cc(C(F)(F)F)ncc2n1C | not satisfied
7. CCS(=O)(=O)c1cccnc1-c1nc2cc(C(F)(F)C(F)(F)F)ncc2n1C | not satisfied

Let us examine a further case.
Q: Determine whether this compound has LOGP_HCOOH no lower than 3: `CCSc1cc(C(N)=O)cnc1-c1nc2cc(C(F)(F)F)ncc2n1C`
Ans: not satisfied

----------
experimental protocol: log P by HPLC on a reversed-phase column (C 18), EEC Directive 79/831 Annex V.A8
Type: physicochemical
test parameters: acidic range, pH 2.7, 0.1% aqueous formic acid/acetonitrile; 55° C.
I'd be grateful if you could share measured LOGP_HCOOH for these entries.
Numbers only.

1. CCS(=O)(=O)c1cccnc1-c1nc2cc(C(F)(F)F)ncc2n1C | 1.95

Hey, quick one: what's LOGP_HCOOH for each of these?
1. Cn1c(-c2ccc(F)cc2S(C)(=O)=O)nc2cc(C(F)(F)F)ncc21
2. COc1ccc(S(C)(=O)=O)c(-c2nc3cc(C(F)(F)F)ncc3n2C)n1
3. COc1ccc(SC)c(-c2nc3cc(C(F)(F)F)ncc3n2C)n1
4. CCCS(=O)(=O)c1cc(C(F)(F)F)cnc1-c1nc2cc(C(F)(F)F)ncc2n1C

Ans:
[2.08, 2.25, 2.75, 3.37]

----------
experimental protocol: log P by HPLC on a reversed-phase column (C 18), EEC Directive 79/831 Annex V.A8
Assay type: physicochemical
test parameters: acidic range, pH 2.7, 0.1% aqueous formic acid/acetonitrile; 55° C.
# if value of LOGP_HCOOH reaches 3, tag fulfilled; if it stays below, tag not fulfilled

Below are worked cases with known answers.
1. CCSc1ccc(Cl)cc1-c1nc2cc(C(F)(F)F)ncc2n1C | fulfilled
2. Cn1c(-c2ccccc2S(=O)(=O)C2COC2)nc2cc(C(F)(F)F)ncc21 | not fulfilled
3. CSc1cc(Cl)ccc1-c1nc2cc(C(F)(F)F)ncc2o1 | fulfilled
4. CCSc1ccc(OC)nc1-c1nc2cc(C(F)(F)F)ncc2n1C | fulfilled
5. CCSc1cc(C(F)(F)F)cnc1-c1nc2cc(-n3ccc(C(F)(F)F)n3)ncc2n1C | fulfilled

Let us examine a further case.
Q: Determine whether this molecule has LOGP_HCOOH no lower than 3: `CSc1cc(Cl)ccc1-c1nc2nc(C(F)(F)F)ncc2o1`
Ans: fulfilled

----------
experimental protocol: log P by HPLC on a reversed-phase column (C 18), EEC Directive 79/831 Annex V.A8
Type: physicochemical
test parameters: reversed-phase HPLC column (C 18); acidic range, pH 2.7, 0.1% aqueous formic acid/acetonitrile; 55° C.; read-out: LOGP_HCOOH
Protocol: The log P values are measured according to EEC Directive 79/831 Annex V.A8 by HPLC (high-performance liquid chromatography) on a reversed-phase column (C 18). Temperature: 55° C. […] Calibration is effected with unbranched alkan-2-ones (having 3 to 16 carbon atoms) with known log P values (log P values determined on the basis of the retention times by linear interpolation between two successive alkanone s).
I'd be grateful if you could share measured chromatographic logP for these entries.
Numbers only.

Examples with answers:
1. CSc1cc(C(F)(F)F)cnc1-c1nc2cc(C(F)(F)F)ncc2n1C | 3.22
2. Cn1c(-c2ncc(C(F)(F)F)cc2[S+](C)[O-])nc2cc(C(F)(F)F)ncc21 (stereo not drawn) | 2.81

The measured chromatographic logP associated with `CCSc1cc(C(F)(F)F)cnc1-c1nc2cc(-n3cnc(C(F)(F)F)c3)ncc2n1C` reads 3.49
